Documented SR across a set of compounds
- System: MES-SA/Dx5 cells
- assayProtocol: PrestoBlue viability assay, MES-SA/Dx5 cells (MDR, P-gp positive)
- details: selectivity ratio MES-SA vs MES-SA/Dx5, without TQ
observable: SR

- compound: "Oc1c(C(c2cccs2)N2CCOCC2)cc(Cl)c2cccnc12 (stereo not shown) [Compound 110]"
  obsValue: 0.57
- compound: "Oc1c(C(c2ccncc2)N2CCOCC2)ccc2cccnc12 (stereo not shown) [Compound 104]"
  obsValue: 2.12
- compound: "Oc1c(C(c2ccccc2)N2CCOCC2)ccc2cccnc12 (stereo not shown) [Compound 102]"
  obsValue: 1.84
- compound: "Oc1ccc(CN2CCCC2)c2cccnc12 [Compound 46]"
  obsValue: 1.47
- compound: "Cc1ccc(C(c2cc(Cl)c3cccnc3c2O)N2CCCC2)cc1 (stereo not shown) [Compound 91]"
  obsValue: 2.18
- compound: "CC1CCN(C(c2cccs2)c2ccc3cccnc3c2O)CC1 (racemic) [Compound 101]"
  obsValue: 0.65
- compound: "CCCOCc1cc(CN2CCCCC2)c(O)c2ncccc12 [Compound 23]"
  obsValue: 10.97
- compound: "CC1CCN(C(c2ccncc2)c2ccc3cccnc3c2O)CC1 (stereo not shown) [Compound 100]"
  obsValue: 2.74
- compound: "Oc1c(C(c2ccccn2)N2CCCCC2)cc(Cl)c2cccnc12 (stereo not shown) [Compound 98]"
  obsValue: 1.92
- compound: "CN1CCN(C(c2cccnc2)c2ccc3cccnc3c2O)CC1 (stereo not shown) [Compound 111]"
  obsValue: 1.53
